Hello, the source for this data is patent US9777005B2, in case you need it.

Test system: human M1 receptor (hCHRM1) (Homo sapiens, UniProt P11229)
Assay protocol: Measurement of M1 receptor positive allosteric modulator (M1PAM) activity, calcium fluorescence (FLIPRtetra) in CHO-K1 cells in the presence of acetylcholine at EC20
Assay context: inflection point of M1PAM activity, in the presence of acetylcholine at EC20 (final 0.6 nM), CHO-K1 cells expressing hCHRM1; read-out: IP value
Metric: EC50 (µM)

In the examples that follow, each entry is paired with its recorded EC50.
> print(dat)
                                   molecule                               test.system  display.unit  assay.result
1  NC(=O)c1ccc(CN2Cc3ccnc(Oc4ccc(C5CC5)cc4F)c3C2=O)cc1  human M1 receptor (hCHRM1) (Homo sapiens, UniProt P11229)            µM        0.0061
2  N#Cc1ccc(CN2Cc3cccc(O[C@H]4CCCC[C@@H]4O)c3C2=O)cc1 (relative stereo)  human M1 receptor (hCHRM1) (Homo sapiens, UniProt P11229)            µM         0.077

a: O=C1c2c(cccc2O[C@@H]2COCC[C@H]2O)CN1Cc1ccc(Cl)cc1 (single isomer, unassigned)
b: Cn1cc(-c2ccc(CN3Cc4cccc(Oc5c(F)cc([N+](=O)[O-])cc5Cl)c4C3=O)cc2)cn1
INPUT: Compare a and b by numeric EC50 and name the larger one. Indicate your choice by writing its label.
OUTPUT: a

====

Test system: human M1 receptor (hCHRM1) (Homo sapiens, UniProt P11229)
Sequence (P11229 1-460): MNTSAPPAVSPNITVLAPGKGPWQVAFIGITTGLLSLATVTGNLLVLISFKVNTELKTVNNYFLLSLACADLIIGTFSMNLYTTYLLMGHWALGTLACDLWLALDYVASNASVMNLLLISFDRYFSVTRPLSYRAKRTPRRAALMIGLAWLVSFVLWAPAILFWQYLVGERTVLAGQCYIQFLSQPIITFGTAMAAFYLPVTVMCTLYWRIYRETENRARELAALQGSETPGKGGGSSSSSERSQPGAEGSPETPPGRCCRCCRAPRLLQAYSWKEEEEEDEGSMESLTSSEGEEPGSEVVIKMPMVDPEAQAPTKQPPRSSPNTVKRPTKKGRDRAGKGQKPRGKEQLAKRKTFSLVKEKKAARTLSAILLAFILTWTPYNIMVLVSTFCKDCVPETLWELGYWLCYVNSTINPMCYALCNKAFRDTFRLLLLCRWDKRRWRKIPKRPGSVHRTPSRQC
Assay protocol: Measurement of M1 receptor positive allosteric modulator (M1PAM) activity, calcium fluorescence (FLIPRtetra) in CHO-K1 cells in the presence of acetylcholine at EC20
Assay context: inflection point of M1PAM activity, in the presence of acetylcholine at EC20 (final 0.6 nM), CHO-K1 cells expressing hCHRM1; read-out: IP value
pEC50: −log10 of the molar value.
Metric: pEC50

> print(dat)
                                   compound                               test.system  assay.result
1  O=C1c2c(ccnc2OCC2CCCO2)CN1Cc1ccc(-c2cnn3c2CCCC3)cc1 (stereo not shown)  human M1 receptor (hCHRM1) (Homo sapiens, UniProt P11229)          7.92
2  Cc1cc(C(F)(F)F)cc(F)c1Oc1nccc2c1C(=O)N(Cc1ccc(-c3ccn(C)n3)cc1)C2  human M1 receptor (hCHRM1) (Homo sapiens, UniProt P11229)          7.41

1: CCc1ccc(Oc2nccc3c2C(=O)N(Cc2ccc(C(N)=O)c(F)c2)C3)c(F)c1
2: CNC(=O)c1ccc(CN2Cc3ccnc(Oc4ccc(C(F)(F)F)cc4F)c3C2=O)cn1
INPUT: In the pair 1 and 2 , the larger recorded pEC50 belongs to which? Mark your answer with the label of the selected entry.
OUTPUT: 1
